Entry source: patent US12479816B2

test: Turbidometric solubility determination; assay type: physicochemical; conditions: PBS with 1% DMSO, aqueous buffer, kinetic from dmso stock, room temperature, OD620, read-out: Max Solub
readoutName: solubility at 2 h (µM)

>>> val("O=C1CCCN1c1ccc(C2CCN(c3cn[nH]c3)CC2)cc1 [Compound 100]")
74
>>> val("COc1ccc(C2CCN(c3ccn[nH]3)CC2)c(Cl)c1 [Compound 66]")
133

P = c1ccc(CC2CCN(c3cn[nH]c3)CC2)cc1 [Compound 3, 4-Benzyl-1-(1H-pyrazol-4-yl)piperidine]
Q = COc1ccc(CC2CCN(c3cn[nH]c3)CC2)cc1 [Compound 127]
Qu. Which gives the smaller solubility at 2 h number: P or Q ? To answer, give the label that identifies your chosen option.
Ans. Q

a = Clc1ccc(C2CCN(c3ccn[nH]3)CC2)cc1 [Compound 62]
b = COc1cc(F)cc(C2CCN(c3ccn[nH]3)CC2)c1 [Compound 73]
Qu. Of a and b , whose reported solubility at 2 h is numerically smaller? Mark your answer with the label of the selected entry.
Ans. a
(a: 42.4 µM, b: 164 µM)

====

assay: Turbidometric solubility determination; assay type: physicochemical; settings: PBS with 1% DMSO, aqueous buffer, kinetic from dmso stock, room temperature, read-out: Solubility_ug/mL
readoutName: solubility at 2 h (µg/mL)

Some solved entries appear below for comparison.
>>> val("CCS(=O)(=O)c1ccc(C2CCN(c3ccn[nH]3)CC2)cc1 [Compound 58]")
126
>>> val("COc1ccc(C2CCN(c3cn[nH]c3)CC2)cc1 [Compound 20]")
9
>>> val("COc1cccc(C2CCN(c3ccn[nH]3)CC2)c1 [Compound 7]")
127
>>> val("COc1ccc(C2CCN(c3ccn[nH]3)CC2)cc1 [Compound 19]")
27.3
>>> val("Cc1ccc(C2CCN(c3ccn[nH]3)CC2)cc1 [Compound 23]")
40.1

A = COCc1ccc(C2CCN(c3ccn[nH]3)CC2)cc1 [Compound 25]
B = CC(=O)N(C)c1ccc(C2CCN(c3cn[nH]c3)CC2)cc1 [Compound 28]
Qu. Compare A and B and name the one whose reported solubility at 2 h is smaller. Kindly give the label for the entry you pick.
Ans. A
(A: 63.9 µg/mL, B: 179 µg/mL)

a = c1ccc(SC2CCN(c3cn[nH]c3)CC2)cc1 [Compound 40]
b = COc1ccc(C2CCN(c3cn[nH]c3)CC2)cn1 [Compound 32]
c = CC(=O)Nc1ccc(C2CCN(c3ccn[nH]3)CC2)cc1 [Compound 29]
Qu. Task for the reader: rank each entry by its solubility at 2 h, from the minimum upward. Quick reminder: the answer is the labels in the order asked.
Ans. a, b, c

====

System: 20-HETE formation (CYP4) in HLM
Experiment: Inhibition of 20-HETE formation at 250 or 500 nM in HLM microsomal incubations
Type: biochemical, human
Settings: 250 nM compound; HLM 300 μg/ml, AA 100 μM, 20 min
Description: To screen the inhibitory effects against 20-HETE formation, compounds were screened in HLM, RLM, RKM and rCYP4F2 microsomal incubations. Compounds dissolved in either 100% methanol or 100% DMSO to yield 10 mM stock solution. […] 20-HETE formation was quantified using a validated UPLC-MS/MS assay and normalized by vehicle group. […] Quantitation of 20-HETE by SRM was performed by monitoring the m/z. Analytical data was acquired and analyzed using Xcaliber 3.0 data system (ThermoFinnigan, San Jose, CA).
readoutName: HLM % inh. @ 250 nM (%)

>>> val("c1ccc(N2CCN(c3ccn[nH]3)CC2)cc1")
14.90

P = c1ccc(C2CCN(c3cn[nH]c3)CC2)cc1
Q = c1ccc(C2CCN(c3ccn[nH]3)CC2)cc1
R = c1ccc(OC2CCN(c3ccn[nH]3)CC2)cc1
Qu. # rank_down: sort by HLM % inh. @ 250 nM, max first # answer = labels listed in requested order
Ans. P, Q, R
